# EXPERIMENTAL_TARGET: PI3K (p110β/p85α) (Homo sapiens, UniProt P42338)
# Sequence (P42338 whole entry): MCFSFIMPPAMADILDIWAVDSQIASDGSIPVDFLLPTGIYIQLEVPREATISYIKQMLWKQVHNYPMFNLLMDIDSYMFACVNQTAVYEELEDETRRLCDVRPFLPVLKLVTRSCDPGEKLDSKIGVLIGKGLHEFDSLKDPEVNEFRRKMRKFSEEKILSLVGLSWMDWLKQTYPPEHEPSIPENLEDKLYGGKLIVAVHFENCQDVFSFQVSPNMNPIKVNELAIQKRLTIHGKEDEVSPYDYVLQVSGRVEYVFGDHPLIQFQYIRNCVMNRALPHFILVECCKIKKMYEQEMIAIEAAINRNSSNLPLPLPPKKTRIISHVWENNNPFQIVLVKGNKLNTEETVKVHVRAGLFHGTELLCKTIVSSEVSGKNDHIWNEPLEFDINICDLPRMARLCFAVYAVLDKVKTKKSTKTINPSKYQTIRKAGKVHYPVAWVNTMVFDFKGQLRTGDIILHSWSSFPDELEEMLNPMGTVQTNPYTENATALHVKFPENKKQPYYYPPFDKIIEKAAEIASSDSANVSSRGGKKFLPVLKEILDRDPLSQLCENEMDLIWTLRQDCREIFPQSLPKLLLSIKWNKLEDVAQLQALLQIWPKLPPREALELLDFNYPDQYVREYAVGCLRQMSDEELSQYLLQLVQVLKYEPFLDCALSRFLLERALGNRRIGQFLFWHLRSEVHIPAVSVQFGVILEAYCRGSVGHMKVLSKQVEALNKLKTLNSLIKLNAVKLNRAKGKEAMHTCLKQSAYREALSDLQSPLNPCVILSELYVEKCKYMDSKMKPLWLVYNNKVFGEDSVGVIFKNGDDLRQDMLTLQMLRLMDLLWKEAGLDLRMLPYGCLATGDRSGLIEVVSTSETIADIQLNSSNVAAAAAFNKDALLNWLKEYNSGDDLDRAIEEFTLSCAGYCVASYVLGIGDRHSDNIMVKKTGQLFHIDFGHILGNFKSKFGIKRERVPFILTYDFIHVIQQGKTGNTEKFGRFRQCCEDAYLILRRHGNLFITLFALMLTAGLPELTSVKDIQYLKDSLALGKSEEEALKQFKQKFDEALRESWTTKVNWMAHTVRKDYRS
# Sequence (P27986 whole entry partner): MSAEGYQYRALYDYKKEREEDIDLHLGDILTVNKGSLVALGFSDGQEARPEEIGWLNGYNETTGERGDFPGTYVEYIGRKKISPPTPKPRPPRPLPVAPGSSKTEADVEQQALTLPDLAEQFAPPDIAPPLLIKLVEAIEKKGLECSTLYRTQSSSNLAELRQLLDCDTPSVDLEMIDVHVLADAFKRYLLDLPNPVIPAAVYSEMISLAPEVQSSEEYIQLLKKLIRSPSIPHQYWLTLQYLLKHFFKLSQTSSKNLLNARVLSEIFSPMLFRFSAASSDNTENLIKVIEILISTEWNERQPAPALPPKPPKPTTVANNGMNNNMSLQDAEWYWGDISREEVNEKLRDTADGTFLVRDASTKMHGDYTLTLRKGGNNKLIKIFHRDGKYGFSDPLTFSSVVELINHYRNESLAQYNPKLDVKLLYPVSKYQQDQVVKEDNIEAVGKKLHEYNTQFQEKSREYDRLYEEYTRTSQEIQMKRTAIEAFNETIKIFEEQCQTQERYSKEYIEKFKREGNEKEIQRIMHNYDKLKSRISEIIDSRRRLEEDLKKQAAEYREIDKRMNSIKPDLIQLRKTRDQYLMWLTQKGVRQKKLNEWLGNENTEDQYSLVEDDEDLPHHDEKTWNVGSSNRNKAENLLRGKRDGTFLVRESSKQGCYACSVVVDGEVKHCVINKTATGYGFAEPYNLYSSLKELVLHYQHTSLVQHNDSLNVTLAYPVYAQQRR
# RUN_DESCRIPTION: PI3Kβ assay (ADP-Glo Kinase Assay)
# Type: biochemical
# RUN_PARAMETERS: read-out: Enzyme activity IC50 PI3Kβ
PROPERTY_LABEL: IC50 (µM)
Numbers only; they are read as µM.

INPUT: IC50 lookup needed for Cc1nc(C(C)c2cc(Cl)c(F)c(C(=O)N3CC(O)C3)c2OC(C)C)n2ccnc(N)c12 (centres unmarked) , thanks.
OUTPUT: 34

INPUT: So what does the record say about IC50 for Cc1nc([C@@H](C)c2cc(Cl)c(F)c(C(=O)NC[C@H]3CCOC3)c2OC(C)C)n2ccnc(N)c12 ?
OUTPUT: 11

INPUT: Which value of IC50 has been reported for Cc1nc(C(C)c2cc(Cl)c(F)c(C(=O)NC3(CO)CC3)c2OC(C)C)n2ccnc(N)c12 (centres unmarked) in the records?
OUTPUT: 16

INPUT: Looking for the measured IC50 of Cc1nc([C@@H](C)c2cc(Cl)c(F)c(C(=O)NC[C@H](C)O)c2OC(C)C)n2ccnc(N)c12 , can you help?
OUTPUT: 12

INPUT: Quick one: IC50 of Cc1nc([C@@H](C)c2cc(Cl)c(F)c(C(=O)Nc3ccc(F)cc3)c2OC(C)C)n2ccnc(N)c12 ?
OUTPUT: 12

INPUT: I am curious: what IC50 value has been reported for Cc1nc([C@@H](C)c2cc(Cl)c(F)c(C(=O)N[C@H]3C[C@@H](O)C3)c2OC(C)C)n2ccnc(N)c12 ?
OUTPUT: 7.4

INPUT: Reported IC50, compound Cc1nc([C@@H](C)c2cc(Cl)c(F)c(C(=O)N[C@H]3C[C@H](O)C3)c2OC(C)C)n2ccnc(N)c12 : ____
OUTPUT: 12

INPUT: Consider the compound shown here: Cc1nc([C@@H](C)c2cc(Cl)c(F)c(C(=O)NC[C@H]3CCCO3)c2OC(C)C)n2ccnc(N)c12 What is its recorded IC50?
OUTPUT: 16

INPUT: Sample Cc1nc([C@@H](C)c2cc(Cl)c(F)c(C(=O)NCc3ccccn3)c2OC(C)C)n2ccnc(N)c12 — what was its IC50?
OUTPUT: 13

INPUT: Bench note: what IC50 did Cc1nc([C@@H](C)c2cc(Cl)c(F)c(C(=O)N[C@H]3CCCOC3)c2OC(C)C)n2ccnc(N)c12 show?
OUTPUT: 32

INPUT: Consider the compound shown here: Cc1nc([C@@H](C)c2cc(Cl)c(F)c(C(=O)N[C@H]3CCC[C@H]3O)c2OC(C)C)n2ccnc(N)c12 What is its recorded IC50?
OUTPUT: 8.7
